EXPERIMENTAL TARGET: recombinant human Ran protein (Homo sapiens)
Construct: Recombinant Ran protein was purchased from Sigma-Aldrich Inc. (R3152)
PROTOCOL NOTES: Surface Plasmon Resonance (SPR) binding to immobilized Ran
EXPERIMENTAL PARAMETERS: Ran-GDP immobilized on CM5 chip
VALUE TYPE: Kd

For Oc1ccc(CCCCCCc2ccc(O)cc2)cc1 , what is its reported Kd?
380 nM
